Hey, just so you know, these numbers are from ChEMBL document CHEMBL1156829.

For each entry below, report its EC50 value.
Test system: Plasmodium falciparum
Assay: NOVARTIS: Inhibition of Plasmodium falciparum 3D7 (drug-susceptible) proliferation in erythrocyte-based infection assay
Type: functional, organism-based
Conditions: Plasmodium falciparum, 3D7
Give bare numbers, in µM.

Example entries begin here.
c1ccc(Cn2nnnc2CN2CCN(C(c3ccccc3)c3ccccc3)CC2)cc1    2.87
CC(=O)Nc1nc(C)c(-c2csc(Nc3ccc(C)cc3)n2)s1    0.24
Cc1cc(NC(=O)c2ccc(S(=O)(=O)N(Cc3ccccc3)C(C)C)cc2)no1    2.69
CCCOc1ccc(Cc2c(C)nc3ccc(Br)cc3c2O)cc1    1.03
CCN(CC)CCCNC(=S)N(Cc1ccccc1)Cc1cc2cc(C)c(Cl)cc2[nH]c1=O    1.94
CCCCCCN(C(=O)c1ccccc1)C(CC)c1nc2ccccc2c(=O)n1-c1ccccc1OC (centres undefined)    1.05
CCOc1cc(C2CC(=O)NC3=C2C(=O)CC(c2cc(OC)ccc2OC)C3)ccc1O (centres undefined)    0.431
COc1cc(C(=O)N2C(C(=O)Nc3ccccc3F)CSC2c2ccc(C(C)(C)C)cc2)cc(OC)c1OC (centres undefined)    1.04
O=C(NC1CC1)c1ccc(CSCc2ccccc2Cl)o1    0.503
C(=NNc1nc2ccccc2[nH]1)c1ccccc1    0.587

Here are 5 compounds. What values of EC50 were reported for them?
1. COc1cccc(C2C(C(=O)Nc3ccccc3)=C(C)N=c3sc(=Cc4c[nH]c5ccccc45)c(=O)n32)c1 (centres undefined)
2. CCN1/C(=C/c2ccc3ccccc3[n+]2CC)Sc2sc3ccccc3c21
3. Cc1ccc(CNC(=O)c2cc(=O)[nH]c3ccc(S(=O)(=O)N4CCOCC4)cc23)cc1
4. O=C(Nc1ccc(-n2cnnn2)cc1)C1CCN(Cc2cc3ccccc3o2)CC1
5. CCN1/C(=C/c2cccc[n+]2C)Sc2cc(NC(C)=O)ccc21

1: 2.47; 2: 0.0992; 3: 1.43; 4: 0.198; 5: 1.4
